target_entity: T1, canine urokinase plasminogen activator receptor, recombinant protein (canine)
T1 construct: Recombinant c uPAR produced by VIB (Ghent); also called c uPAR; canine uPAR
T1 chain: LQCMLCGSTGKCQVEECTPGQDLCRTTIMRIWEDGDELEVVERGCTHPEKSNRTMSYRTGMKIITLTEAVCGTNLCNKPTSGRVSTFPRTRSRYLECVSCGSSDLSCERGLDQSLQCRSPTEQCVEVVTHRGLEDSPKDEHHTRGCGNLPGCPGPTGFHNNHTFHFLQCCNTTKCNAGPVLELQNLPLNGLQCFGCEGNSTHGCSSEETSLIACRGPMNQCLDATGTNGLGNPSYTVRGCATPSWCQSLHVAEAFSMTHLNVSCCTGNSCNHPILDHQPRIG
test_summary: SPR (Biacore T200) kinetics, purified sdAb 150-0.62 nM, c uPAR immobilised on CM5, kd/ka
assay_endpoint: Kd (nM)
Just the number please, in nM, no unit attached.

Use these answered entries as a reference point.
>>> observed_result("sdAb 18 (clone 5H2) with carboxy-terminal hexahistidine tag (VHH, C-terminal 6His for purified-protein SPR; koff screen used bacterial extracts; also called Nr 18) VHH: QVQLQESGGGLAQPGGSLRLSCTASGFTSDYYGIGWFRQAPGKEREGVSCISSSDGSTYYADSVKGRFTISRDNAKNTVYLQMNSLKPEDTAVYYCATRGASCYYTGSYSLGYDYWGQGTQVTVSS")
34
>>> observed_result("sdAb 16 (clone 5A5) with carboxy-terminal hexahistidine tag (VHH, C-terminal 6His for purified-protein SPR; koff screen used bacterial extracts; also called Nr 16) VHH: QVQLQESGGGLVQPGGSLRLSCAISGFTLDYYGIGWFRQAPGKEREGVSCISSSDGSTYYADSVKGRFTISRDNAKNTVYLQMNSLKPEDTAVYYCATRGASCYYSGSYSLGYDYWGQGTQVTVSS")
36
>>> observed_result("sdAb 15 (clone 5A4) with carboxy-terminal hexahistidine tag (VHH, Lead compound; C-terminal 6His for purified-protein SPR; koff screen used bacterial extracts of the pMECS-GG construct; also called sdAb15.6His; Nr 15) VHH: QVQLQESGGGWVQPGGSLRLSCAASGFTLDYYGIGWFRQAPGKEREGVSCISSSDGSTYYADSVKGRFTISRDNAKNTVYLQMNSLKPEDTAVYYCATRGASCYYTGSYSLGYDYWGQGTQVTVSS")
12

# evaluate next
Request: Look up and state reported Kd for sdAb 17 (clone 5B7) with carboxy-terminal hexahistidine tag (VHH, C-terminal 6His for purified-protein SPR; koff screen used bacterial extracts; also called Nr 17) VHH: QVQLQESGGGLVQPGGSLRLSCAVSGSTLEYYGIGWFRQAPGKEREGVSCISSSDGSTYYADSVKGRFTISRDNAKNTVYLQMNSLKPEDTAVYYCATRGASCYYTGSYSLGYDYWGQGTQVTVSS
Response: 17
